Reported property: melting point

Compound: CC(C)Oc1ccc(-c2nn(C(C)c3oc4cccc(F)c4c(=O)c3-c3cccc(F)c3)c3ncnc(N4CCOCC4)c23)cc1F (centres unmarked) [Example 85]
Reported property: melting point
Result: 116 to 119 °C
//
Compound: CC(c1oc2cccc(F)c2c(=O)c1-c1cccc(F)c1)n1nc(-c2ccc(N3CCOCC3)c(F)c2)c2c(N)ncnc21 (single isomer, unassigned) [Example 59]
Reported property: melting point
Result: 242 to 245 °C
//
Compound: Cc1ccccc1-c1c(C(C)Nc2ncnc3[nH]cnc23)oc2cccc(F)c2c1=O (centres unmarked) [Example 138]
Reported property: melting point
Result: 275 to 277 °C
//
Compound: COCc1ccc(-c2nn(C(C)c3oc4cccc(F)c4c(=O)c3-c3cccc(F)c3)c3ncnc(N)c23)cc1 (centres unmarked) [Example 72]
Reported property: melting point
Result: 204 to 207 °C

query: Quick one: melting point for COC(=O)c1cc(-c2nn(C(C)c3oc4cccc(F)c4c(=O)c3-c3cccc(F)c3)c3ncnc(N)c23)cs1 (centres unmarked) [Example 61] ?
result: 227 to 230 °C

query: Quick one: melting point for CC(C)Oc1ccc(-c2nn(C(C)c3oc4cccc(N5CCOCC5)c4c(=O)c3-c3cccc(F)c3)c3ncnc(N)c23)cc1F (centres unmarked) [Example 120] ?
result: 227 to 229 °C

query: Quick one: melting point for CC(c1oc2cccc(F)c2c(=O)c1-c1cccc(F)c1)n1nc(-c2ccc3c(c2)CNC3=O)c2c(N)ncnc21 (centres unmarked) [Example 123] ?
result: 293 to 296 °C

query: Quick one: melting point for CC(c1oc2cccc(F)c2c(=O)c1-c1cccc(F)c1)n1nc(-c2ccc3nccn3c2)c2c(N)ncnc21 (centres unmarked) [Example 73] ?
result: 317 to 320 °C

query: Quick one: melting point for Cc1n[nH]c2cc(-c3nn(C(C)c4oc5cccc(F)c5c(=O)c4-c4cccc(F)c4)c4ncnc(N5CCOCC5)c34)ccc12 (centres unmarked) [Example 112] ?
result: 183 to 186 °C

query: Quick one: melting point for Cc1ccc(-c2nn(C(C)c3oc4cccc(F)c4c(=O)c3-c3cccc(F)c3)c3ncnc(N)c23)s1 (centres unmarked) [Example 62] ?
result: 223 to 226 °C

query: Quick one: melting point for CC(c1oc2cccc(F)c2c(=O)c1-c1cccc(F)c1)n1nc(-c2ccc(S(N)(=O)=O)cc2)c2c(N)ncnc21 (centres unmarked) [Example 60] ?
result: 232 to 235 °C

query: Quick one: melting point for COC(=O)c1ccc(-c2nn(C(C)c3oc4cccc(F)c4c(=O)c3-c3cccc(F)c3)c3ncnc(N)c23)c(F)c1 (centres unmarked) [Example 64] ?
result: 258 to 260 °C

query: Quick one: melting point for CC(Nc1ncnc2[nH]cnc12)c1oc2cccc(F)c2c(=O)c1-c1cccc(F)c1 (centres unmarked) [Example 69] ?
result: 247 to 249 °C

query: Quick one: melting point for CC(c1oc2cccc(F)c2c(=O)c1-c1cccc(F)c1)n1nc(-c2ccc(OC(F)(F)F)c(F)c2)c2c(N)ncnc21 (centres unmarked) [Example 45] ?
result: 247 to 249 °C

###

Each entry below carries its recorded inhibition at 0.3 µM.
- Target or system: UniProtKB P48736
- Sequence (P48736 whole entry): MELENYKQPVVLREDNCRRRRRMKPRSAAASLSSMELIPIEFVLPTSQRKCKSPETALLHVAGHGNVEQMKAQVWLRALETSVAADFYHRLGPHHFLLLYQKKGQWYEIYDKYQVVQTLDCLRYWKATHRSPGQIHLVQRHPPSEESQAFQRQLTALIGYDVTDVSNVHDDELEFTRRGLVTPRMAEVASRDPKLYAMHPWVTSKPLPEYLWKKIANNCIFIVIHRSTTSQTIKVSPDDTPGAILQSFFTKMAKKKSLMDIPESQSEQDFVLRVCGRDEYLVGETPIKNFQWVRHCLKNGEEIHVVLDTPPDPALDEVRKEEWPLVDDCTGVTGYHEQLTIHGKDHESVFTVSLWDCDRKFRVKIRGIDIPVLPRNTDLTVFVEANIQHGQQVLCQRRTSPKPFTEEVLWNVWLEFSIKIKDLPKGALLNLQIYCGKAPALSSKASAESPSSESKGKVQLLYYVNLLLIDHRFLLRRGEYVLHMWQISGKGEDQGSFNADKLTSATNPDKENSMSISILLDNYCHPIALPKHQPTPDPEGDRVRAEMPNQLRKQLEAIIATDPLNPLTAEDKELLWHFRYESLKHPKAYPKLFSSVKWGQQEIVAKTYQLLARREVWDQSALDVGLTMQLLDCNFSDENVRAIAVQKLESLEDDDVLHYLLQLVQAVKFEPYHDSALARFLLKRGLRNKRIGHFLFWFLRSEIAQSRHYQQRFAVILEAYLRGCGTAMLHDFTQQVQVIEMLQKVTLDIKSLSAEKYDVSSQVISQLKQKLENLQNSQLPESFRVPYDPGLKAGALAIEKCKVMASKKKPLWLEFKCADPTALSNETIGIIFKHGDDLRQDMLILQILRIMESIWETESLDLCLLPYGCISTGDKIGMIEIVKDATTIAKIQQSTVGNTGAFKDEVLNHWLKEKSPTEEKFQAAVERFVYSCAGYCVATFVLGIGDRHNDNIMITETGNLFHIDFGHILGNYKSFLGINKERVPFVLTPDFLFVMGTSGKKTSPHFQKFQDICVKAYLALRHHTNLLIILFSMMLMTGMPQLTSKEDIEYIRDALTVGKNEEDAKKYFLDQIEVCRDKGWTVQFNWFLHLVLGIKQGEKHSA
- Protocol description: Fluorescent (HTRF) determination of PI3 kinase enzyme activity, PI3Kγ
- Format: biochemical
- Protocol conditions: 300 nM (Examples 1-59)

Molecule: CC(C)Nc1ccc(-c2nn(C(C)c3oc4cccc(F)c4c(=O)c3-c3cccc(F)c3)c3ncnc(N)c23)cc1F (stereo not shown)
Result: 75 to 100%

Molecule: CC(c1oc2cccc(F)c2c(=O)c1-c1cccc(F)c1)n1nc(N2CCCCC2)c2c(N)ncnc21 (stereo not shown)
Result: 0 to 25%

Molecule: CC(c1oc2cccc(F)c2c(=O)c1-c1cccc(F)c1)n1nc(-c2cc3ccccc3o2)c2c(N)ncnc21 (stereo not shown)
Result: 75 to 100%

Molecule: CC(Nc1ncnc2[nH]cnc12)c1oc2cccc(F)c2c(=O)c1-c1cccc(F)c1 (stereo not shown)
Result: 0 to 25%

Molecule: CC(c1oc2cccc(F)c2c(=O)c1-c1cccc(F)c1)n1nc(-c2ccc(OC3CCOCC3)c(F)c2)c2c(N)ncnc21 (stereo not shown)
Result: 75 to 100%

query: Missing value: inhibition at 0.3 µM, UniProtKB P48736, entry CC(C)Oc1ncc(-c2nn(C(C)c3oc4cccc(F)c4c(=O)c3-c3cccc(F)c3)c3ncnc(N)c23)cn1 (stereo not shown) . Fill in?
result: 25 to 50%

query: Missing value: inhibition at 0.3 µM, UniProtKB P48736, entry CC(c1oc2cccc(F)c2c(=O)c1-c1cccc(F)c1)n1nc(-c2cc3ccccc3s2)c2c(N)ncnc21 (stereo not shown) . Fill in?
result: 75 to 100%

query: Missing value: inhibition at 0.3 µM, UniProtKB P48736, entry CC(C)c1nn(C(C)c2oc3cccc(F)c3c(=O)c2-c2cccc(F)c2)c2ncnc(N)c12 (stereo not shown) . Fill in?
result: 25 to 50%

query: Missing value: inhibition at 0.3 µM, UniProtKB P48736, entry CC(c1oc2cccc(F)c2c(=O)c1-c1cccc(F)c1)n1nc(-c2ccc(N(C)C)c(F)c2)c2c(N)ncnc21 (stereo not shown) . Fill in?
result: 25 to 50%

query: Missing value: inhibition at 0.3 µM, UniProtKB P48736, entry CC(C)Cc1ccc(-c2nn(C(C)c3oc4cccc(F)c4c(=O)c3-c3cccc(F)c3)c3ncnc(N)c23)cc1 (stereo not shown) . Fill in?
result: 50 to 75%

query: Missing value: inhibition at 0.3 µM, UniProtKB P48736, entry CC(C)Oc1ccc(-c2nn(C(C)c3oc4cccc(F)c4c(=O)c3-c3cccc(F)c3)c3ncnc(N)c23)cc1F (stereo not shown) . Fill in?
result: 75 to 100%

query: Missing value: inhibition at 0.3 µM, UniProtKB P48736, entry CC(c1oc2cccc(F)c2c(=O)c1-c1cccc(F)c1)n1nc(-c2ccc(C3=NCCCO3)cc2)c2c(N)ncnc21 (stereo not shown) . Fill in?
result: 50 to 75%

query: Missing value: inhibition at 0.3 µM, UniProtKB P48736, entry Cc1nc2cc(-c3nn(C(C)c4oc5cccc(F)c5c(=O)c4-c4cccc(F)c4)c4ncnc(N)c34)ccc2[nH]1 (stereo not shown) . Fill in?
result: 75 to 100%

query: Missing value: inhibition at 0.3 µM, UniProtKB P48736, entry CC(c1oc2cccc(F)c2c(=O)c1-c1cccc(F)c1)n1ncc2c(N(C)C)ncnc21 (stereo not shown) . Fill in?
result: 50 to 75%

query: Missing value: inhibition at 0.3 µM, UniProtKB P48736, entry CNc1nnc(-c2ccc(-c3nn(C(C)c4oc5cccc(F)c5c(=O)c4-c4cccc(F)c4)c4ncnc(N)c34)cc2)s1 (stereo not shown) . Fill in?
result: 50 to 75%

###

Each entry below carries its recorded inhibition at 0.1 µM.
- Target or system: PI3kδ (Homo sapiens)
- Sequence (O00329 whole entry): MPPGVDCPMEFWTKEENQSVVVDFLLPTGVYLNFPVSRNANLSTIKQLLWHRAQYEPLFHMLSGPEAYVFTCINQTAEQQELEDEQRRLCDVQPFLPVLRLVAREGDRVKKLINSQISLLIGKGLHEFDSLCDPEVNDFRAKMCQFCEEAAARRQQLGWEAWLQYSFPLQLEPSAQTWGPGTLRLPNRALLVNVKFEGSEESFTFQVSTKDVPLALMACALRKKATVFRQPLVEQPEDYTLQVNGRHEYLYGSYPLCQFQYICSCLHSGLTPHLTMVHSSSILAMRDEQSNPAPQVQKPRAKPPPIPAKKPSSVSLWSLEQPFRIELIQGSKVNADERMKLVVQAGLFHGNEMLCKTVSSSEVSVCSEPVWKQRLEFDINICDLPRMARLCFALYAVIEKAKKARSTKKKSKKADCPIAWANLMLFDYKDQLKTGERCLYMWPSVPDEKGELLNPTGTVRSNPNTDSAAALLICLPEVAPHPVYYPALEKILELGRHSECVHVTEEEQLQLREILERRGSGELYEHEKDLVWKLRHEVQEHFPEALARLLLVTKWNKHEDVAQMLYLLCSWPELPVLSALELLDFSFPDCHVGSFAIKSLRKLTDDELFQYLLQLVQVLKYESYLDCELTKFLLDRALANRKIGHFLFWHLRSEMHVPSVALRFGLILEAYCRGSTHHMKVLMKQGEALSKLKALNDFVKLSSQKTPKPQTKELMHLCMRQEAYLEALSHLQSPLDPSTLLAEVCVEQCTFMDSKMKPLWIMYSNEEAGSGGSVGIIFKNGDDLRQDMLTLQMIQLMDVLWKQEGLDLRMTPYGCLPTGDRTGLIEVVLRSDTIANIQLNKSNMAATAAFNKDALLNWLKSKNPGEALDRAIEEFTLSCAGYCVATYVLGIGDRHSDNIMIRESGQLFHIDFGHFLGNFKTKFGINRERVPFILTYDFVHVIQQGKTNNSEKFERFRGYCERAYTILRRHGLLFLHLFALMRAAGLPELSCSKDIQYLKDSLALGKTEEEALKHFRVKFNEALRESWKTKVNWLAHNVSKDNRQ
- Sequence (P27986 whole entry partner): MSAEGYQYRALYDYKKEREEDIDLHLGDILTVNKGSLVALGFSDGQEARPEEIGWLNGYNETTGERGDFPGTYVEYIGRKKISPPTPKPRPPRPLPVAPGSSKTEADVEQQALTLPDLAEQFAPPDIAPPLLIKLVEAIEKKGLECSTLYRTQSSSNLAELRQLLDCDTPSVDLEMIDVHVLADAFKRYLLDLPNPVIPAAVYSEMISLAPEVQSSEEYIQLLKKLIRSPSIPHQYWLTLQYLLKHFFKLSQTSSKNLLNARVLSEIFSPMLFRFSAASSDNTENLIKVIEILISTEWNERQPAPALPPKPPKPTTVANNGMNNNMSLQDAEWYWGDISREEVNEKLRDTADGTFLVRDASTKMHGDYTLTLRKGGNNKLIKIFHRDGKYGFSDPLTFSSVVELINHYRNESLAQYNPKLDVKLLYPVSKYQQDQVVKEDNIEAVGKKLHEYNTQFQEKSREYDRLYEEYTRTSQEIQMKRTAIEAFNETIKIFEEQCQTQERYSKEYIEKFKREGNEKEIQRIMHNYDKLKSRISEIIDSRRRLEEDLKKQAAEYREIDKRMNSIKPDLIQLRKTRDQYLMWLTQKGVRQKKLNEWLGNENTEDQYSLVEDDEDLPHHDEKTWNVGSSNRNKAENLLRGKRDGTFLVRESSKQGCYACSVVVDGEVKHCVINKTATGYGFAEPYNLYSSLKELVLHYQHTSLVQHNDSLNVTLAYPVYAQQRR
- Protocol description: Fluorescent (HTRF) determination of PI3 kinase enzyme activity, PI3Kδ
- Type: biochemical
- Protocol conditions: 100 nM (Examples 60-137)

Compound: CC(c1oc2cccc(F)c2c(=O)c1-c1cccc(F)c1)n1nc(-c2ccc3nccn3c2)c2c(N)ncnc21 (stereo not drawn) [Example 73]
inhibition at 0.1 µM: 25 to 50%

Compound: Cc1ccc(-c2nn(C(C)c3oc4cccc(F)c4c(=O)c3-c3cccc(F)c3)c3ncnc(N)c23)s1 (stereo not drawn) [Example 62]
inhibition at 0.1 µM: 50 to 75%

Shifting focus to the compound that follows.
query: Quick one: inhibition at 0.1 µM for CC(c1oc2cccc(F)c2c(=O)c1-c1cccc(F)c1)n1cnc2c(N)nc(F)nc21 (stereo not drawn) [Example 106] ?
result: 0 to 25%

###

Each entry below carries its recorded melting point.

Compound: COc1c(C)cc(-c2nn(C(C)c3oc4cccc(F)c4c(=O)c3-c3cccc(F)c3)c3ncnc(N)c23)cc1C (centres unmarked) [Example 71]
Reported property: melting point
Result: 232 to 235 °C

Compound: CC(c1oc2cccc(F)c2c(=O)c1-c1cccc(F)c1)n1cnc2c(N(C)C)ncnc21 (single isomer, unassigned) [Example 130]
Reported property: melting point
Result: 198 to 200 °C

Compound: CC(C)Oc1ccc(-c2nn(C(C)c3oc4cccc(N5CCOCC5)c4c(=O)c3-c3ccccc3)c3ncnc(N)c23)cc1F (centres unmarked) [Example 121]
Reported property: melting point
Result: 211 to 214 °C

Compound: COc1nc(N[C@H](C)c2oc3cccc(F)c3c(=O)c2-c2cccc(F)c2)c2nc[nH]c2n1 (single isomer, unassigned) [Example 135]
Reported property: melting point
Result: 219 to 222 °C

query: Quick one: melting point for CC(C)NS(=O)(=O)c1ccc(-c2nn(C(C)c3oc4cccc(F)c4c(=O)c3-c3cccc(F)c3)c3ncnc(N)c23)cc1 (centres unmarked) [Example 56] ?
result: 211 to 214 °C

query: Quick one: melting point for CC(c1oc2cccc(F)c2c(=O)c1-c1cccc(F)c1)n1nc(-c2ccc(C3=NCCCO3)cc2)c2c(N)ncnc21 (centres unmarked) [Example 51] ?
result: 228 to 230 °C

query: Quick one: melting point for CNS(=O)(=O)c1ccc(-c2nn(C(C)c3oc4cccc(F)c4c(=O)c3-c3cccc(F)c3)c3ncnc(N)c23)cc1 (centres unmarked) [Example 52] ?
result: 175 to 178 °C
